Item-by-item account of IC50
Experiment: Cytotoxicity against human CL1-0 cells assessed as growth inhibition after 48 hrs by MTS assay
Format: functional, cell-based
Settings: Homo sapiens, CL1-0, 48 h; read-out: IC50

Per the records, this molecule ( COc1ccc2c(CNCCCCCC(=O)O)cc3cc4c(cc3c2c1)OCO4 ) has IC50 equal to > 2 µg/mL

Documented IC50 of COc1ccc2c(CN3CCC(CO)CC3)cc3cc4c(cc3c2c1)OCO4 : 0.81 µg/mL

====

Assay: Cytotoxicity against human CL1-0 cells assessed as growth inhibition after 48 hrs by MTS assay
Format: functional, cell-based
Details: Homo sapiens, CL1-0, 48 h; read-out: IC50
property: IC50

Observe how each entry below is paired with its result.
[
  {
    "smiles_record": "COc1ccc2c(CN3CCC(CO)CC3)cc3cc4c(cc3c2c1)OCO4.Cl",
    "experimental_value": "0.44 µg/mL"
  },
  {
    "smiles_record": "COc1ccc2c(CN3CCN(c4ccc(Cl)cc4)CC3)cc3cc4c(cc3c2c1)OCO4",
    "experimental_value": "> 2 µg/mL"
  },
  {
    "smiles_record": "COc1ccc2c(CNCCCCCCO)cc3cc4c(cc3c2c1)OCO4",
    "experimental_value": "> 2 µg/mL"
  }
]

Value of IC50 reported for the compound COc1ccc2c(CN3CCN(CCO)CC3)cc3cc4c(cc3c2c1)OCO4 is > 2 µg/mL

GET /value?item= COc1ccc2c(CN3CCC(C(=O)O)CC3)cc3cc4c(cc3c2c1)OCO4 &field=IC50 returns > 2 µg/mL

Field IC50 (entry COc1ccc2c(CN3CCN(c4ccc(O)cc4)CC3)cc3cc4c(cc3c2c1)OCO4 ) reads > 2 µg/mL

Reported IC50 for COc1ccc2c(CN3CCC(CCO)CC3)cc3cc4c(cc3c2c1)OCO4 was 0.37 µg/mL

Field IC50 (entry COc1ccc2c(CN3CCC(CCO)CC3)cc3cc4c(cc3c2c1)OCO4.Cl ) reads 0.46 µg/mL
